Assignment: determine reported abundance fitness for the given variants.
B1: Homeobox protein cut-like 1, residues 941 to 1008; numbered along this chain, P39880 (parent)
chain: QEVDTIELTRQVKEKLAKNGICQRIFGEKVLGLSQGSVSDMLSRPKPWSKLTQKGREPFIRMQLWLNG

# Variants of: B1
# ASSAY_TEXT: abundance fitness (aPCA) (normalised: wild type 0, dead -1); higher = more abundant; growth selection in yeast, the domain comes from the species named
# MEASUREMENT_PARAMETERS: Homo sapiens
Give bare numbers.

Answered examples (4):
QEVDTIELARQVKEKLAKNGICQRIFGEKVLGLSQGSVSDMLSRPKPWSKLTQKGREPFIRMQLWLNG: 0.026
QYVDTIELTRQVKEKLAKNGICQRIFGEKVLGLSQGSVSDMLSRPKPWSKLTQKGREPFIRMQLWLNG: -0.329
QEVDTIELTRQVKLKLAKNGICQRIFGEKVLGLSQGSVSDMLSRPKPWSKLTQKGREPFIRMQLWLNG: -0.152
QEVDTIELTRQVKEKLAKNGICQRIFGEKVLGLSQGSVSDMLSGPKPWSKLTQKGREPFIRMQLWLNG: -0.118

Would you mind giving abundance fitness for every variant in the list below?
1. QEVDTVELTRQVKEKLAKNGICQRIFGEKVLGLSQGSVSDMLSRPKPWSKLTQKGREPFIRMQLWLNG
2. QEVDTIELTRQVKEKLAKNGICQNIFGEKVLGLSQGSVSDMLSRPKPWSKLTQKGREPFIRMQLWLNG
3. QEVDTIELTRQVKEKLACNGICQRIFGEKVLGLSQGSVSDMLSRPKPWSKLTQKGREPFIRMQLWLNG

Outgoing:
-0.046
0.005
-0.261

Would you mind giving abundance fitness for every variant in the list below?
1. QEVDTIERTRQVKEKLAKNGICQRIFGEKVLGLSQGSVSDMLSRPKPWSKLTQKGREPFIRMQLWLNG
2. QEVDTIELCRQVKEKLAKNGICQRIFGEKVLGLSQGSVSDMLSRPKPWSKLTQKGREPFIRMQLWLNG
3. QEVDTIELTRQVKEKLAKNGICQRIFGEKVLGLSQGSVSDMLSRPKPWSNLTQKGREPFIRMQLWLNG
4. QECDTIELTRQVKEKLAKNGICQRIFGEKVLGLSQGSVSDMLSRPKPWSKLTQKGREPFIRMQLWLNG

Outgoing:
[-0.01, -0.087, -0.221, -0.486]
